Values were extracted from patent US4308267A.

molecules and their reported concentration at 2 h
- Measurement protocol: pharmacokinetics in mouse (Table 3)
- Type: in vivo
- Condition label: serum; mouse, 20 mg/kg, 2 hrs.; read-out: Serum Level at 2 hrs.
Structures can show the parent of a compound that is named as a salt.

[
  {
    "Molecule": "CO/N=C(\\C(=O)N[C@@H]1C(=O)N2C(C(=O)O)=C(CSc3nnnn3CCNS(=O)(=O)O)CS[C@H]12)c1csc(N)n1 [Compound A, disodium salt]",
    "Sign qualifier": "=",
    "concentration at 2 h [ng/mL]": 52000
  },
  {
    "Molecule": "CO/N=C(\\C(=O)N[C@@H]1C(=O)N2C(C(=O)O)=C(COC(C)=O)CS[C@H]12)c1csc(N)n1 [Cefatoxime]",
    "Sign qualifier": "<",
    "concentration at 2 h [ng/mL]": 1000
  },
  {
    "Molecule": "Cn1nnnc1SCC1=C(C(=O)O)N2C(=O)[C@@H](NC(=O)[C@H](O)c3ccccc3)[C@H]2SC1 [Cefamandole]",
    "Sign qualifier": "=",
    "concentration at 2 h [ng/mL]": 1000
  }
]
